# EXPERIMENT_DESCRIPTION: Plasma pharmacokinetic studies of idronoxil in rats (rectal in cocoa butter vs intestinal in lipid emulsion)
# Type: in vivo, Male Sprague-Dawley rats
# EXPERIMENTAL_SETUP: male, Sprague-Dawley, rat, plasma, other: intraduodenal infusion, 10 mg/kg, Intestinal delivery (intraduodenal infusion), lipid emulsion, 10 mg/kg, 8 hr; read-out: Idronoxil Plasma Concentration Rat 3
# Experimental: The objective of this study in rodents is to determine the plasma pharmacokinetics of idronoxil after rectal delivery and intestinal delivery in lipids (cocoa butter or emulsion). […] Sample analysis: Plasma concentrations of idronoxil were measured by the HMST-lab using a validated HPLC-MS/MS method. […] MS analysis was conducted in positive mode electrospray ionisation and quantitation of the analytes performed in MRM mode. […]

SUBSTANCE_SMILES: Oc1ccc(C2=Cc3ccc(O)cc3OC2)cc1
concentration at 8 h / ng/mL: 3.37
